Values were extracted from patent US20020055171A1.

Here, each record is paired with measured Weight in grams of Callus tissue data.
- Tested on: Parenchyma tissue from heads of romaine lettuce
- measurement-description: Formation of callus tissue in lettuce parenchyma sections
- Assay type: cell-based
- recorded-conditions: 10^−6 moles/L, 7 days at 26 degrees in the dark; average initial weight 0.04 g
Please reply with the bare figure in g and do not write the unit itself.

compound="O=C(O)Cc1c[nH]c2ccccc12 [IAA, Indole-3-acetic acid]" experimental_target="Parenchyma tissue from heads of romaine lettuce" metric="Weight in grams of Callus tissue" value_measured=1.2
compound="C=C1C(=O)Nc2ccccc21 [MO, 3-methyleneoxindole]" experimental_target="Parenchyma tissue from heads of romaine lettuce" metric="Weight in grams of Callus tissue" value_measured=1.5
compound="O=C(O)Cc1cccc2ccccc12 [NAA, napthaleneacetic acid]" experimental_target="Parenchyma tissue from heads of romaine lettuce" metric="Weight in grams of Callus tissue" value_measured=0.85

Lab note: next compound to report on.
The reported value for O=C(O)CCCc1c[nH]c2ccccc12 [IBA, indolebutyric acid] in terms of Weight in grams of Callus tissue is 0.70

====

- System: cuttings from 12-day old bean plants
- measurement-description: Root formation in bean cuttings planted in treated vermiculite
- Type: in vivo
- recorded-conditions: 10^−6M, 10 cuttings per treatment
metric: Average dry wt (grams) of root mass (14 days after treatment)
# unit: grams | format: bare number

Reference set, count: 3
molecule="O=C(O)Cc1c[nH]c2ccccc12 [IAA, Indole-3-acetic acid]" experimental_target="cuttings from 12-day old bean plants" units_label=grams value_measured=7
molecule="O=C(O)Cc1cccc2ccccc12 [NAA, napthaleneacetic acid]" experimental_target="cuttings from 12-day old bean plants" units_label=grams value_measured=2
molecule="O=C(O)CCCc1c[nH]c2ccccc12 [IBA, indolebutyric acid]" experimental_target="cuttings from 12-day old bean plants" units_label=grams value_measured=7

# evaluate next
# Average dry wt (grams) of root mass (14 days after treatment) of C=C1C(=O)Nc2ccccc21 [MO, 3-methyleneoxindole] = 11
